Target: human kinase Mps-1 (Homo sapiens)
Construct: N-terminally GST-tagged human full length recombinant Mps-1 kinase
Assay: Mps-1 kinase assay (HTRF)
Details: lowATP; mean; read-out: Mps1 lowATP mean IC50
So basically, if IC50 comes in under 4 µM it's 1.0, and if it's 4 µM or more it's 0.0.

A selection of reference data follows.
                                   compound  cat
0  CNC(=O)Nc1ccc(-c2cnc3c(NCc4ccccn4)nc4cc(F)c(F)cc4n23)cc1 [Example 2-121]  0.0
1  CC(C)CNc1nc2ccccc2n2c(-c3ccc(C(=O)Nc4ccccc4C(N)=O)cc3)cnc12 [Example 3-11]  0.0
2  CNC(=O)Nc1ccc(-c2cnc3c(NCc4cccc(F)c4)nc4cc(C)c(C)cc4n23)cc1 [Example 2-161]  1.0
3  COCCNc1nc2ccc(F)cc2n2c(-c3ccc(C(=O)NC4CC4)c(Cl)c3)cnc12 [Example 2-78]  0.0
4  CCn1nccc1C(=O)Nc1cccc(NC(=O)c2ccc(-c3cnc4c(NCC(C)C)nc5ccccc5n34)cc2)c1 [Example 3-24]  1.0
5  CC(C)CNc1nc2ccccc2n2c(-c3ccc(C(=O)Nc4cccc(NC(=O)c5ccncc5)c4)cc3)cnc12 [Example 3-27]  1.0

# next compound below
Regarding Cc1cc2nc(NCCC(N)=O)c3ncc(-c4ccc(C(=O)NC5CC5)c(Cl)c4)n3c2cc1C [Example 2-195] , kindly confirm whether its IC50 is beneath 4 µM.
1.0

###

Target: human kinase Mps-1 (Homo sapiens)
Construct: N-terminally GST-tagged human full length recombinant Mps-1 kinase; purchased Invitrogen, Karslruhe, Germany PV4071
Experiment: Mps-1 kinase assay (HTRF)
Assay type: biochemical
Conditions: lowATP; mean; read-out: Mps1 lowATP mean IC50
measure-name: IC50 (nM)
Note: unit nM is implicit; provide only the numeric part.

>>> print(df.to_string())
                                   compound  measure_name  measurement_unit  readout_value
0  Cc1cc2nc(NCc3ccn(C)n3)c3ncc(-c4ccc(C(=O)NC5CC5)c(Cl)c4)n3c2cc1C          IC50                nM            127
1  CC(C)CNc1nc2ccc(F)cc2n2c(-c3ccc(C(=O)NC4CC4)cc3)cnc12          IC50                nM           28.3
2  COc1ccc(CCNc2nc3ccccc3n3c(-c4ccc(C(=O)NC5CC5)cc4)cnc23)cc1          IC50                nM            565
3  Cc1cc2nc(NCc3ccccn3)c3ncc(-c4ccc(C(=O)NC5CC5)c(Cl)c4)n3c2cc1C          IC50                nM            251
4  CCCNc1nc2cc(F)c(F)cc2n2c(-c3ccc(NC(=O)NC)cc3)cnc12          IC50                nM          16000

Quick one: give measured IC50 for O=C(NC1CC1)c1ccc(-c2cnc3c(NC[C@@H](O)CO)nc4ccc(F)cc4n23)cc1Cl (stereo in doubt)
12200

Determine its reported IC50: Cc1cc2nc(NCCC(C)C)c3ncc(-c4ccc(C(=O)NC5CC5)cc4)n3c2cc1C
5.61

Consider the compound COCCCNc1nc2ccc(F)cc2n2c(-c3ccc(C(=O)NC4CC4)cc3)cnc12 . State its measured IC50.
177

###

Target: human kinase Mps-1 (Homo sapiens, UniProt P33981)
Construct: N-terminally GST-tagged human full length recombinant Mps-1 kinase
Sequence (P33981 1-857): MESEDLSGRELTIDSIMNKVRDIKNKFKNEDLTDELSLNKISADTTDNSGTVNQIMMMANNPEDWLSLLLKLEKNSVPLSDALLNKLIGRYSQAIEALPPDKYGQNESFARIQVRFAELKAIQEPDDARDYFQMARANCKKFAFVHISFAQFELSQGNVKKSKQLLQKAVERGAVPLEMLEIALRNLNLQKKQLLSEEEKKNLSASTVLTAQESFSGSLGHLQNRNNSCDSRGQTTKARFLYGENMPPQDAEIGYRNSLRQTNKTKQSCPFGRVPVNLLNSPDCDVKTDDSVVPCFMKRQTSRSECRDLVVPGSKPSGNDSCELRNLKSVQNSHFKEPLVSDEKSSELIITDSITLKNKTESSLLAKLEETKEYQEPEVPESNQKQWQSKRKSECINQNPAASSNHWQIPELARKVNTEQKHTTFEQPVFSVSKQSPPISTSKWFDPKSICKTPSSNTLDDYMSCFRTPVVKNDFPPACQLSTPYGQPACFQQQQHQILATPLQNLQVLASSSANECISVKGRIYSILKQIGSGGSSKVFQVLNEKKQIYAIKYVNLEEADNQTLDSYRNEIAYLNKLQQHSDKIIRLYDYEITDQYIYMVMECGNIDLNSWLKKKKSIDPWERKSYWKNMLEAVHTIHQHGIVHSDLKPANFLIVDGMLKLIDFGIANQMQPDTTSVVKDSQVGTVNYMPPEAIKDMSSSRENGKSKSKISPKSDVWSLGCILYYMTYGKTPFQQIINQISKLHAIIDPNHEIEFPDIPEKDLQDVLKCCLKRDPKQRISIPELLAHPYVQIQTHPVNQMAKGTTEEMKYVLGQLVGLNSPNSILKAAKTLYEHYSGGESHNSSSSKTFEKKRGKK
Assay: Mps-1 kinase assay (HTRF)
Settings: lowATP; mean; read-out: Mps1 lowATP mean IC50
Measured pIC50 accompanies every entry in the list below.
Units for pIC50: none; it is -log10 of a concentration expressed in mol/L.

Answered examples (2):
>>> print(df.to_string())
                        structure_as_smiles                                    system  readout_value
0  CC(C)(C)OC(=O)NCCCNc1nc2ccc(F)cc2n2c(-c3ccc(C(=O)NC4CC4)c(Cl)c3)cnc12  human kinase Mps-1 (Homo sapiens, UniProt P33981)           5.54
1  O=C(NC1CC1)c1ccc(-c2cnc3c(NCCCN4CCCC4=O)nc4ccccc4n23)cc1  human kinase Mps-1 (Homo sapiens, UniProt P33981)           6.53

Provide pIC50 value for the following compound: Cn1cc(CNc2nc3ccc(F)cc3n3c(-c4ccc(C(=O)NC5CC5)c(Cl)c4)cnc23)cn1
5.78

For the compound COCCNc1nc2ccccc2n2c(-c3ccc(C(=O)NC4CC4)cc3)cnc12 , report pIC50.
6.75

Output pIC50 of COCCCNc1nc2cc(C#N)ccc2n2c(-c3ccc(C(=O)NC4CC4)cc3)cnc12
7.29

For the compound O=C(NC1CC1)c1ccc(-c2cnc3c(NCCO)nc4ccc(F)cc4n23)cc1 , give its measured pIC50 value.
6.67

Supply recorded pIC50 for CC(C)CNc1nc2ccccc2n2c(-c3ccc4[nH]ncc4c3)cnc12 here.
5.34

Please report pIC50 for the following compound: CC(C)CNc1nc2ccccc2n2c(-c3cc[nH]n3)cnc12
4.98

###

Target: human kinase Mps-1 (Homo sapiens)
Construct: N-terminally GST-tagged human full length recombinant Mps-1 kinase
Test: Mps-1 kinase assay (HTRF)
Details: lowATP; mean; read-out: Mps1 lowATP mean IC50
pIC50: −log10 of the molar value.
We use 6 as the dividing line for pIC50: on or above the line is t, below is f.

Some solved cases for reference:
In [3]: df
Out[3]:
                                   molecule  cat
0  CNC(=O)Nc1ccc(-c2cnc3c(NCCCO)nc4ccc(F)cc4n23)cc1    f
1  CNC(=O)Nc1ccc(-c2cnc3c(NCC(C)C)nc4cc(C)c(C)cc4n23)cc1    t

Kindly determine if pIC50 recorded for CNC(=O)Nc1ccc(-c2cnc3c(NCC(O)CO)nc4cc(C#N)ccc4n23)cc1 (centres unmarked) is above or exactly 6.
f

Determine whether this molecule has pIC50 no lower than 6: O=C(NC1CC1)c1ccc(-c2cnc3c(NCc4ccco4)nc4cc(F)c(F)cc4n23)cc1
t

Can NS(=O)(=O)c1ccc(CCNc2nc3ccccc3n3c(-c4ccc(C(=O)NC5CC5)cc4)cnc23)cc1 be said to have pIC50 at or above 6?
t

###

The compounds listed here are annotated with their pIC50.
Target: human kinase Mps-1 (Homo sapiens, UniProt P33981)
Construct: N-terminally GST-tagged human full length recombinant Mps-1 kinase
Sequence (P33981 1-857): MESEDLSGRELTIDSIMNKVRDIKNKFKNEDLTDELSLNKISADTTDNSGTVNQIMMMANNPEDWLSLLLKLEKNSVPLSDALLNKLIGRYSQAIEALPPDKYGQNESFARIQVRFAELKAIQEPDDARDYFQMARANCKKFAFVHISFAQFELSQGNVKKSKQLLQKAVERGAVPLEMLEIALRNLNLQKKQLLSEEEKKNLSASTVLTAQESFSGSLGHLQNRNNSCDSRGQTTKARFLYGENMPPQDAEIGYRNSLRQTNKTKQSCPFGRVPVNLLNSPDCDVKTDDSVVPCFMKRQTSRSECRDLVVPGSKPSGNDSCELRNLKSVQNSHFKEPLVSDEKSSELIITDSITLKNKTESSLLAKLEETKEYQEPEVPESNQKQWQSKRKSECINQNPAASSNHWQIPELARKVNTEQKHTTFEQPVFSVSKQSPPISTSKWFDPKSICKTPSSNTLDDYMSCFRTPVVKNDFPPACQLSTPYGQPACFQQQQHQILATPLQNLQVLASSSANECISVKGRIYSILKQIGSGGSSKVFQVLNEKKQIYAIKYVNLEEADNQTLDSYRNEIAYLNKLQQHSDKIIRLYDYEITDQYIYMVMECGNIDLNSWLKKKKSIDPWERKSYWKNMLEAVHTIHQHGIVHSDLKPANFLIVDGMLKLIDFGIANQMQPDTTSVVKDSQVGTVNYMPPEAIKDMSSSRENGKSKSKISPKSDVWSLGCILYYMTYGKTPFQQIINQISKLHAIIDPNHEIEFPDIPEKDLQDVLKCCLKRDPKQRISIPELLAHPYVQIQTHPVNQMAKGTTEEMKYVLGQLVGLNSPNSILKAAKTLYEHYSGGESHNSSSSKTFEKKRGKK
Assay: Mps-1 kinase assay (HTRF)
Conditions: lowATP; mean; read-out: Mps1 lowATP mean IC50
Schema: pIC50 number; meaning minus log10 of the concentration expressed in molar units.

// known answers, use as guide
>>> print(df.to_string())
                                   compound  measure_name  readout_value
0  CC(C)CNc1nc2ccccc2n2c(-c3ccccc3F)cnc12 [Example 1-26]         pIC50           5.04
1  CCCCNc1nc2cc(F)c(F)cc2n2c(-c3ccc(C(=O)NC4CC4)c(Cl)c3)cnc12 [Example 2-131]         pIC50           5.43
2  Cc1ccccc1-c1cnc2c(NCC(C)C)nc3ccccc3n12 [Example 1-11]         pIC50           4.86

Shifting focus to the compound that follows.
Look up pIC50 of NS(=O)(=O)CCNc1nc2cc(F)c(F)cc2n2c(-c3ccc(C(=O)NC4CC4)cc3)cnc12 [Example 2-112] and report it.
7.28
